assay: Pharmacokinetics in brain after IV or IN administration; format: in vivo; conditions: mouse, brain; IV, 20 mg/kg, mice; read-out: Brain t1/2 (converted)
property measured: half-life (h)

# molecule, measured
data = [
    ("O=c1c(O[C@@H]2O[C@H](CO)[C@H](O)[C@H](O)[C@H]2O)c(-c2ccc(O)c(O)c2)oc2cc(O)cc(O)c12 [HYP, Quercetin-3-O-β-D-galactopyranoside]", 10.5),
]

###

assay: Pharmacokinetics in serum after IV or IN administration; assay type: in vivo; settings: mouse, serum; IV, 20 mg/kg, mice; read-out: Serum Ke (converted)
property measured: k el

# molecule, property measured, measured
records = [
    ("O=c1c(O[C@@H]2O[C@H](CO)[C@H](O)[C@H](O)[C@H]2O)c(-c2ccc(O)c(O)c2)oc2cc(O)cc(O)c12 [HYP, Quercetin-3-O-β-D-galactopyranoside]", "k el", "0.000103 s⁻¹"),
]
